# PROTOCOL SUMMARY: qHTS for Inhibitors of human tyrosyl-DNA phosphodiesterase 1 (TDP1): qHTS in cells in absence of CPT; further: nearly all actives have a fitted effect of over 55% in size; further: potency means the concentration at half of the fitted maximal effect
# CONDITION: DT40 Tdp1-/- hTDP1 cells, no CPT, ATP luminescence, 48 h
# Experimental: Human tyrosyl-DNA phosphodiesterase 1 (TDP1) is a novel repair gene, and we propose to use it as a new target for anticancer drug development. […] For the primary screen, Tdp1-/-;hTDP1 cells will be exposed to small molecules in the presence or absence of CPT, and their growth kinetics will be evaluated after 48 hours by measuring ATP activity. […] The hit compounds will then be evaluated in the presence or absence of CPT using Tdp1-/- cells. […]
Screen size: about 420,000 compounds; about 64,000 (15%) were called active. Roughly 27% stayed inconclusive and do not appear here. The list is a sample of the results.
READOUT: Potency

Recorded Potency, per entry:
Looking for the measured Potency of CCN=C1SC(CC(=O)Nc2ccc(C)cc2)C(=O)N1CC (stereo unspecified) , can you help?
inactive

Report Potency for `O=C(O)CCC(=O)N(Cc1ccco1)c1nc(-c2ccccc2)cs1` please.
inactive

Potency for `CCC(=O)Nc1ccc(C(=O)Nc2cccc(OC)c2)cc1` ?
inactive

Value lookup for Potency; key = `CCCCc1nn2c(=O)cc(COC(=O)c3ccccc3NC(=O)C(C)(C)C)nc2s1`
inactive

# input compound: C=C[C@](C)(O)CCC1C(=C)CCC2[C@@](C)(CO)CCC[C@@]12C (stereo partly specified) ; wanted: its Potency
18.4 µM (active)

Now for another entry.
Look at this compound and give its reported Potency. `CC(=O)c1cccc(Nc2ccc3cc(S(=O)(=O)N4CCC(C)CC4)ccc3n2)c1`
16.4 µM (active)
